The reported measurements were obtained from ChEMBL document CHEMBL4425150.

experiment: Drug level in SLC3A1 knock out 129/C57BL6 mouse urine at 29.3 umol/kg, po administered daily through gavage for 1 week measured 4 hrs post last dose by LC-MS/MS analysis; format: ADME, organism-based; settings: read-out: Drug uptake
Measured Metric: concentration at 4 h (µM)

a. Cl.Cl.N[C@@H](CSSC[C@H](N)C(=O)N1CCOCC1)C(=O)N1CCOCC1
b. CN1CCN(C(=O)[C@@H](N)CSSC[C@H](N)C(=O)N2CCN(C)CC2)CC1.Cl.Cl.Cl.Cl
Rank a against b by their concentration at 4 h values and give the higher one. Your answer should be the label of the entry you select.
b
(b: 7.59 µM, a: 2.09 µM)
